The compounds listed here are annotated with their viability increase.
- PROTOCOL NOTES: viability gain of MRP-1-high H69AR cells under doxorubicin, pilot screen, MRP-1 activator project, CellTiter-Glo, duplicate (AID 807);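 note: compound pretreatment 18-22 h then 72 h combined with doxorubicin; 0% = doxorubicin alone and 100% = vehicle without doxorubicin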
- RUN CONDITIONS: H69AR viability with doxorubicin, CellTiter-Glo luminescence; at 10 µM; hits give high values
# output: bare number, implied unit %

These solved cases illustrate the format of a correct answer.
[
  {
    "COMPOUND": "CCOCCCNC(=O)CCCn1nc(C)n2c(cc3sccc32)c1=O",
    "viability increase / %": 0.66
  },
  {
    "COMPOUND": "Cc1cc2nsnc2c(S(=O)(=O)NCC(=O)O)c1C",
    "viability increase / %": 1.73
  },
  {
    "COMPOUND": "CCN1CCc2c(sc(NC(=O)c3ccc(S(=O)(=O)N4CCOCC4)cc3)c2C(N)=O)C1",
    "viability increase / %": -2.7
  }
]

Data point: `COc1ccc(C)cc1NC(=O)CN1C(=O)c2ccccc2S1(=O)=O` ; viability increase = -2.12

Memo: N#CC1=C(N)Oc2c(sc3ccccc23)C1c1ccco1 (stereo not drawn) , reported viability increase: -4.53

response.value for `CSc1ccc(S(=O)(=O)Nc2ccc3c(c2)OCCO3)cc1` (field: viability increase) = -3.95

---

- PROTOCOL NOTES: growth suppression of PTEN-deleted HCT116, pilot screen, cell-based, HCT116 clonal line, CellTiter-Glo (AID 824);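 note: 0% = 20 µM Hyamine control and 100% = vehicle cell control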
- RUN CONDITIONS: 60 h, at 10 µM, hits give low values
Results filed as inconclusive are left out.
Assign labels as follows, please: satisfied for viability below 90%; not satisfied for viability equal to or exceeding 90%.

Solved entries (count: 5):
[
  {
    "COMPOUND": "CCOC(=O)C1CCN(C(=O)CN(c2cccc(OC)c2)S(=O)(=O)c2ccccc2)CC1",
    "LABEL CLASS": "satisfied"
  },
  {
    "COMPOUND": "COCCn1c(SCCN2CCOCC2)nc2c1c(=O)[nH]c(=O)n2C",
    "LABEL CLASS": "not satisfied"
  },
  {
    "COMPOUND": "CC1(C)CC(=O)C2=C(C1)OC(N)=C(C#N)C21CCN(Cc2ccccc2)CC1",
    "LABEL CLASS": "not satisfied"
  },
  {
    "COMPOUND": "Cc1occc1C(=O)NC1CCCCCC1",
    "LABEL CLASS": "not satisfied"
  },
  {
    "COMPOUND": "Cc1ccc(-n2ncc3c(NCCCN4CCOCC4)ncnc32)c(C)c1",
    "LABEL CLASS": "not satisfied"
  }
]

Request: Consider `COCCCNc1ncnc2nc[nH]c12` . Does its viability lie strictly below 90%?
Result: not satisfied

Request: Is it true that viability reported for `CCCc1nc(N2CCN(C)CC2)c2sc(=S)n(-c3ccccc3)c2n1` is less than 90%?
Result: satisfied

Request: In the record for `CN(CCO)c1ncnc2nc[nH]c12` , is viability less than 90%?
Result: not satisfied

Request: Does the reported viability of the following compound sit strictly below 90%? COc1ccc(C(c2sc3nc(C)nn3c2O)N2CCC(O)CC2)cc1OC (stereo not drawn)
Result: not satisfied

Request: State whether 90% exceeds viability recorded for `CCOC(=O)c1sc(NC(=O)c2cccnc2)nc1C` .
Result: not satisfied

Request: Does the reported viability of the following compound sit strictly below 90%? Oc1c(C(c2cccc(F)c2)N2CCN(Cc3ccccc3)CC2)sc2ncnn12 (stereo not drawn)
Result: satisfied

Request: Does the reported viability of the following compound sit strictly below 90%? `Cc1cc(C)n(-c2nc3ccccc3nc2Nc2ccc(CC(=O)O)cc2)n1`
Result: not satisfied

Request: Does the reported viability of the following compound sit strictly below 90%? `COc1ccc(S(=O)(=O)Cc2ccc(C(=O)N3CCN(c4ncccn4)CC3)o2)cc1`
Result: not satisfied

Request: hey, is viability for `O=C(CSc1nccc2ccccc12)N1CCN(c2ccccn2)CC1` lower than 90% or not?
Result: not satisfied

Request: Item CC(=O)N1CCN(CCN=CC2=C(O)CC(c3ccc(Cl)cc3)CC2=O)CC1 (stereo not drawn) : viability beneath 90%, strictly?
Result: not satisfied

Request: hey, is viability for `Cc1ccc(C)c(C(=O)N(Cc2nc(-c3ccc(Cl)cc3)no2)C(C)C)c1` lower than 90% or not?
Result: satisfied

Request: Determine if `O=C(Nc1c(C(=O)N2CCCCC2)cnn1-c1ccccc1)c1ccco1` shows viability strictly lower than 90%.
Result: not satisfied

Request: hey, is viability for `Cc1cccc(-n2c(O)c(C=Nc3ccc4c(c3)OCO4)c3ccccc3c2=O)n1` lower than 90% or not?
Result: satisfied

Value source: PubChem BioAssay
